GI50 values by entry
Test system: SNB-19
Assay: NCI tumour cell line growth inhibition, 48 h
Calls of active or inactive are those of the source. No stated cut-off is given here; in the data, active = GI50 up to about 1.1 µM and inactive = higher.

As a guide, the following entries are already answered.
                                   molecule  recorded_endpoint               result
0                C=CCCC(=O)CC(=O)OCc1ccccc1               GI50  > 100 µM (inactive)
1  COc1ccc2c(c1)CCc1c-2n(CCN(C)C)c2ccc(OC)cc12               GI50   11.6 µM (inactive)

Quick note, GI50 for CSc1nc(N)c(NC2OC(CO)C(O)C2O)c(=O)[nH]1 (stereo not given) landed at > 100 µM (inactive)

Per the records, this molecule ( COc1ccc(C23OCC(Cc4cc(OC)c(OC)cc42)C3COC(C)=O)cc1OC (stereo not given) ) has GI50 equal to > 100 µM (inactive)

# GI50 of Cc1cc(N(CCC#N)CCC#N)ccc1/C=C1N=C(/C=C/c2ccccc2)N(c2ccc(S(N)(=O)=O)cc2)C\1=O = > 100 µM (inactive)
